# TARGET UNDER TEST: NADPH oxidase 2 (Homo sapiens) (UniProt P04839)
# Sequence (P04839 whole entry, looked up): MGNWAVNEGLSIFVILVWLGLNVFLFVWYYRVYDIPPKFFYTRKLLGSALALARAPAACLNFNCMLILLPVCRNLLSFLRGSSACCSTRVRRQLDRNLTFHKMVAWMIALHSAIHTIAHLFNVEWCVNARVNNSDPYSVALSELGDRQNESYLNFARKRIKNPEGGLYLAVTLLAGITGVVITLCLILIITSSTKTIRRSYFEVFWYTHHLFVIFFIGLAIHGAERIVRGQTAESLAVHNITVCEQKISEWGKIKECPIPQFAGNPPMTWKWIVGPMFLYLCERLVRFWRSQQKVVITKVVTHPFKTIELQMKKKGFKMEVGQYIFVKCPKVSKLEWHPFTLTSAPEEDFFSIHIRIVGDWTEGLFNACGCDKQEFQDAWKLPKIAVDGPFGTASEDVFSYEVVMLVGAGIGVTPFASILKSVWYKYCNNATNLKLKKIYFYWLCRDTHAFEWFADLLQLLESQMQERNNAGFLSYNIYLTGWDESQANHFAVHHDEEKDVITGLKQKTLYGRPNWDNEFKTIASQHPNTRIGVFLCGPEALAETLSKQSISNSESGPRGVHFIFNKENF
# ASSAY PROCEDURE: NOX2-dependent H2O2 signal modulators, primary screen, NOX inhibitor project, cell-based, HEK293-NOX2, PMA-stimulated, Amplex Red fluorescence (AID 1159); note: test concentration not given here
# EXPERIMENTAL PARAMETERS: 45 min, higher = more signal, called active from +8 up or from −8 down
Binary call on z-score: 1.0 from 0.2 upward, 0.0 beneath that.

Before answering, review these 3 worked examples.
CC(=O)Nc1cc(Br)ccc1C(=O)O
1.0
CC(C)c1ccc(NN2C(C(O)c3cccc(O)c3)C=CC3C(=O)N(c4ccccc4)C(=O)C32)cc1 (stereo not drawn)
0.0
COCCCNC(=O)[C@@]1(CCC(=O)OC(C)(C)C)N=C(c2ccc(OCCCO)cc2)O[C@H]1c1ccccc1CN=[N+]=[N-]
1.0

Form field: z-score at least 0.2? Entry: `CC(C)C(=C=CC[C@@H](O)c1ccccc1OCCO)C[C@@H](O)c1ccccn1` 1.0

Form field: z-score at least 0.2? Entry: `COc1ccc(C(=O)Nc2cccc(CN3C(=O)[C@@]4(O[C@@H](CCn5cc(CCO)nn5)[C@H]([Si](C)(C)c5ccc(OC)cc5)[C@H]4C)c4ccccc43)c2)cc1` 0.0

Form field: z-score at least 0.2? Entry: CCCCC(O)C1C=CC2C(=O)N(C3CCCCC3)C(=O)C2N1Nc1ccc(OC)cc1 (stereo not drawn) 0.0

Form field: z-score at least 0.2? Entry: COC(=O)c1ccc(OC)c(/C=C\CC(OC(C)=O)c2ccccc2)c1 (stereo not drawn) 0.0

Form field: z-score at least 0.2? Entry: COc1cc(C(O)C2C=CC3C(=O)N(c4ccccc4)C(=O)C3N2Nc2ccc(C#N)cc2)cc(OC)c1OC (stereo not drawn) 0.0

Measured values drawn from PubChem BioAssay for this set.
